biological target: 17β-HSD3 (Homo sapiens, UniProt P37058); construct: expressed in transfected cells; host or cells: human 293-EBNA cells, stably transfected; experiment: Assay for 17β-HSD3 activity (TLC assay) in 293-EBNA cells stably transfected with 17β-HSD3; type: cell-based; settings: 293-EBNA, 10 μM; TLC assay; mean of at least two measurements, typically SD ±5%
Sequence (P37058 whole entry): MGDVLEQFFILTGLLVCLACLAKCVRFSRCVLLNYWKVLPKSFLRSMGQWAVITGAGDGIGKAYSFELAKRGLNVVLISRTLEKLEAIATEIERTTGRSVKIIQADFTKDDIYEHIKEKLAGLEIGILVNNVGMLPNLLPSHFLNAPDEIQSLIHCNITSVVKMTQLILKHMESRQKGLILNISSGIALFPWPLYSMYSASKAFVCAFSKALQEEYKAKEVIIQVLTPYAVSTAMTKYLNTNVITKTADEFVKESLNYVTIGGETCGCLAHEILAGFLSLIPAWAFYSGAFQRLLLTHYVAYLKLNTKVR

compound	comparison-symbol	inhibition at 10 µM [%]
CC(=O)Nc1ccccc1CNc1ccccc1Oc1ccc(Cl)cc1 [Compound 1]	=	87
COc1cc(CNc2ccccc2Oc2ccc(Cl)cc2)c(NC(C)=O)cc1OC [Compound 5]	<	20
CC(=O)N1CCC(C(=O)Nc2cccc(CNc3ccccc3Oc3ccc(Cl)cc3)c2)CC1 [Compound 24]	=	97
COc1cc(CNc2ccccc2Oc2ccc(Cl)cc2Cl)c(NC(C)=O)cc1OC [Compound 6]	<	20
